test system: Plasmodium berghei; test: Screen against P. berghei liver stage (PbLuc), transformed with Luciferase, at 10uM; type: functional, HepG2; details: tested at 10 uM
The campaign covered roughly 69,000 compounds. About 8,600 (12%) showed an effect of 50% or more. Shown is part of a subset that was picked to be rich in strong results.
Quick rule for you: INHIBITION at 20% or higher means 1, lower means -1.

Recorded results for 5 compounds are shown here.
Check the entry O=C(CCc1ccccc1)NC1CCC2(CCC(=O)N2)CC1 (stereo unspecified) : does INHIBITION equal or exceed 20%?
-1

Check the entry CCOc1ccccc1-n1c(-c2cn(CC)nc2C)n[nH]c1=O : does INHIBITION equal or exceed 20%?
-1

Check the entry CNC(=O)c1cc(C)ccc1NCc1cn2cc(C)ccc2n1 : does INHIBITION equal or exceed 20%?
1

Check the entry Cc1cc(CNC(=O)c2cc(NC(=O)C(C)C)ccc2Cl)no1 : does INHIBITION equal or exceed 20%?
1

Check the entry CCN1CCN(C(=O)C2CC(=O)N(c3cnn(C(C)C)c3)C2)CC1 (stereo unspecified) : does INHIBITION equal or exceed 20%?
1

---
Check the entry O=C(c1ccc(C2CCNC2)cc1)N1CCC(N2CCC(O)CC2)CC1 (stereo unspecified) : does INHIBITION equal or exceed 20%?
-1

Check the entry CC(NC(=O)CCc1cccs1)c1nnc2n1CCCCC2 (stereo unspecified) : does INHIBITION equal or exceed 20%?
-1

====

tested on: Plasmodium berghei; assay: Screen against P. berghei liver stage (PbLuc), transformed with Luciferase, at 10uM; type: functional, HepG2; conditions: tested at 10 uM
Hit rate of the full screen: of about 69,000 compounds, about 8,600 (12%) showed an effect of 50% or more. For the sample, strong results were picked, then their nearest neighbours and some compounds at random.
Lab note: class by INHIBITION, see bottom: < 20%; middle: ≥ 20% and < 40%; top: ≥ 40%

In plain terms, what class is CNC(=O)[C@@H]1C[C@H]2CN(Cc3nccs3)C[C@H]2N1C ?
top

====

tested on: Plasmodium berghei; assay: Screen against P. berghei liver stage (PbLuc), transformed with Luciferase, at 10uM; type: functional, HepG2; conditions: tested at 10 uM
In all, about 69,000 compounds went through this assay and about 8,600 (12%) showed an effect of 50% or more. The sample holds strong results, similar compounds and a random draw of the others, so the mix is not that of the screen.
hey, just use yes if measured INHIBITION is less than 40%, otherwise no

Recorded results for 3 compounds are shown here.
Confirm or reject: INHIBITION of CCN(Cc1noc(CC(C)C)n1)Cc1ccccc1OCC(=O)O lies strictly below 40%
yes

Confirm or reject: INHIBITION of COc1ccc(-c2ncccc2C(=O)N2C[C@@H]3CC[C@H]2C3)cn1 lies strictly below 40%
yes

Confirm or reject: INHIBITION of CCN(Cc1noc(CC(C)C)n1)Cc1cccc(F)c1O lies strictly below 40%
no

---
Confirm or reject: INHIBITION of CN(C)C(=O)c1ccccc1NC(=O)N[C@@H]1c2ccccc2C[C@@H]1O lies strictly below 40%
no

====

test system: Plasmodium berghei; assay: Screen against P. berghei liver stage (PbLuc), transformed with Luciferase, at 10uM; format: functional, HepG2; conditions: tested at 10 uM
Hit rate of the full screen: of about 69,000 compounds, about 8,600 (12%) showed an effect of 50% or more. Shown is part of a subset that was picked to be rich in strong results.
Known INHIBITION of a selection of compounds
Output should be the measured figure followed by the unit it is expressed in.

See these solved cases before continuing.
Tell me the measured INHIBITION of CC(C)C(=O)Nc1ncn(Cc2cccc(Br)c2)n1 , please.
53.3%

Tell me the measured INHIBITION of Cc1ccc(S(=O)(=O)N2CCC(c3n[nH]cc3C(=O)N(C)C)CC2)cc1 , please.
12.8%

Tell me the measured INHIBITION of CCOCC(=O)Nc1ncn(Cc2cccc(Br)c2)n1 , please.
61.8%

Tell me the measured INHIBITION of CSCC(=O)Nc1ncn(Cc2cccc(Br)c2)n1 , please.
69.3%

Tell me the measured INHIBITION of CC(CC(=O)Nc1ncn(CC(=O)NCc2ccccc2)n1)C1CC1 (configuration not stated) , please.
38.8%

Tell me the measured INHIBITION of O=C(Nc1ncn(Cc2cccc(Br)c2)n1)C1CCC1 , please.
37.2%

# evaluate next
Tell me the measured INHIBITION of CC(C)n1cc(S(=O)(=O)N2CCCCCC2)cn1 , please.
33.3%

====

tested on: Plasmodium berghei; assay: Screen against P. berghei liver stage (PbLuc), transformed with Luciferase, at 10uM; format: functional, HepG2; details: tested at 10 uM
Hit rate of the full screen: of about 69,000 compounds, about 8,600 (12%) showed an effect of 50% or more. Shown is part of a subset that was picked to be rich in strong results.
Known INHIBITION of a selection of molecules
Give the value, in units of %, as a plain number.

Tell me the measured INHIBITION of Cc1cc(NC(=O)NCC(O)c2ccc(F)c(F)c2)n(C)n1 (stereo unspecified) , please.
21.8

Tell me the measured INHIBITION of CSCc1ccc(CNCCN2CCOCC2)o1 , please.
15.6

Tell me the measured INHIBITION of CCn1c(SCC(N)=O)nnc1C(C)NC(=O)c1ccc(Cl)cc1 (stereo unspecified) , please.
31.6

Tell me the measured INHIBITION of CCc1nccn1C1CCCN(C(=O)c2csc(NC(C)=O)n2)C1 (stereo unspecified) , please.
20.1

---
Tell me the measured INHIBITION of CCN1CC[C@@]2(C(=O)N(C)C)CCN(C(=O)Cc3ccccc3)CC[C@@H]12 , please.
11.2

Tell me the measured INHIBITION of Cc1cc(O)cc(=O)n1CCCC(=O)Nc1n[nH]c2cccc(F)c12 , please.
5.03

Tell me the measured INHIBITION of COCc1cn(CC2CCN(Cc3nc(C)c[nH]3)CC2)nn1 , please.
-7.85

Tell me the measured INHIBITION of CNc1cc(C)nc(C2COCCN2CCc2ccccc2)n1 (stereo unspecified) , please.
-2.9

Tell me the measured INHIBITION of CC(C)N(C(=O)Cn1cc(Cl)cn1)c1ccccc1 , please.
21.8

Tell me the measured INHIBITION of N#Cc1ccccc1Cn1cncn1 , please.
25.3

Tell me the measured INHIBITION of Cc1cc(C(=O)N2CCn3c(COCC4CCCC4)cnc3C2C)on1 (stereo unspecified) , please.
37.3

Tell me the measured INHIBITION of Cc1cc(N(C)C)nc(C2COCCN2Cc2csc(C)n2)n1 (stereo unspecified) , please.
39.3

Tell me the measured INHIBITION of OCC1(NCc2cnc(-c3ccsc3)s2)CCOCC1 , please.
-11.7

Tell me the measured INHIBITION of COc1cccc(NC(=O)NC2(c3noc(CN(C)C)n3)CCCC2)c1 , please.
16.2

Tell me the measured INHIBITION of CCOc1ccc(NCC(=O)NCC(=O)N2CCCC2)c(C(F)(F)F)c1 , please.
16.5

Tell me the measured INHIBITION of CCOc1ccc(Cl)c(C(=O)N2CCN(C(=O)OC)CC2)n1 , please.
-6.44

====

system: Plasmodium berghei; assay: Screen against P. berghei liver stage (PbLuc), transformed with Luciferase, at 10uM; format: functional, HepG2; conditions: tested at 10 uM
Among all 69,000 compounds or so, about 8,600 (12%) showed an effect of 50% or more. For the sample, strong results were picked, then their nearest neighbours and some compounds at random.
READOUT LABEL: INHIBITION (%)
Give the value, in units of %, as a plain number.

See these solved cases before continuing.
Give Plasmodium berghei INHIBITION for CCn1ccnc1CN1CCCC(CO)(CCCc2ccccc2)C1 (configuration not stated)
3.68

Give Plasmodium berghei INHIBITION for Cc1c(CNS(=O)(=O)c2cccc(COC(C)C)c2)cnn1C
57.5

Give Plasmodium berghei INHIBITION for CC(C)C(=O)N1CCC(Cc2nccnc2Nc2ccccn2)CC1
23.4

---
Give Plasmodium berghei INHIBITION for CCN(Cc1ccncc1)C1CCCN(Cc2ccc(F)cc2OC)C1 (configuration not stated)
25.5

Give Plasmodium berghei INHIBITION for Cn1cnc2c1CCN(Cc1noc(-c3ccccc3)n1)C2
43.7

Give Plasmodium berghei INHIBITION for CC(C)Oc1ncnc2c1CCN(C(=O)c1cccn1C)CC2
7.39

Give Plasmodium berghei INHIBITION for CCN1CCC(N2CCC(C(=O)N(C)C)CC2)CC1
15.6

Give Plasmodium berghei INHIBITION for COC1C[C@@H]2CN(C(=O)c3cccc4c3OCCO4)C[C@@H]2C1 (some centres not stated)
40.625

Give Plasmodium berghei INHIBITION for COCc1cccc(S(=O)(=O)NCc2cnn(C)c2C)c1
-25.8

Give Plasmodium berghei INHIBITION for CCn1nc(C(C)C)cc1C(=O)NCC1CCCN(c2ccccn2)C1 (configuration not stated)
45

Give Plasmodium berghei INHIBITION for C[C@H]1CN(Cc2cnn(C)c2)C[C@@]12CCN(Cc1cccnc1)C2=O
48.2

Give Plasmodium berghei INHIBITION for CCCC1(NC(=O)C(c2ccc(F)cc2)N(C)C)CC1 (configuration not stated)
53.6

Give Plasmodium berghei INHIBITION for Cc1nc(C)n(CC2CCCN(c3ncnc4c3CCC4)C2)n1 (configuration not stated)
80.8

Give Plasmodium berghei INHIBITION for Cc1ccc(C2(CN3CCN(Cc4cnc(C)n4C)CC3)CC2)cc1
12.8

Give Plasmodium berghei INHIBITION for CCc1nc(C)sc1CN1CC[C@@](O)(CCOC)[C@H](C)C1
21.8

Give Plasmodium berghei INHIBITION for O=C1[C@@H]2CC[C@@H](CN(c3ncnc4ccsc34)C2)N1CC1CC1
78.9

Give Plasmodium berghei INHIBITION for Cc1nc(C)n(C2CCCN(C(=O)CCn3ccnn3)C2)n1 (configuration not stated)
-10.3

Give Plasmodium berghei INHIBITION for CN1CCC(C)(CNC(=O)c2ccc(SCc3cccnc3)cc2)CC1
34

Give Plasmodium berghei INHIBITION for O=C(C1CCOC1)N1CCN(CC(F)(F)F)c2ccccc21 (configuration not stated)
34.2

Give Plasmodium berghei INHIBITION for CC(C)c1cc(C(=O)NCC2CCCN(C(C)C)C2)n(C)n1 (configuration not stated)
34.1

Give Plasmodium berghei INHIBITION for c1ccc2c(c1)cnn2CCCNC1CCOC2(CCOCC2)C1 (configuration not stated)
-9.39

Give Plasmodium berghei INHIBITION for Cc1nc(C)n(CC2CCCN2c2ncnc3c2CCC3)n1 (configuration not stated)
26.9

Give Plasmodium berghei INHIBITION for Cn1cnc2c1CCN(Cc1nc(-c3ccco3)no1)C2
45.1

Give Plasmodium berghei INHIBITION for CCn1c(C2CCCN(Cc3ccc(F)cc3Cl)C2)nn(C)c1=O (configuration not stated)
-36.4

Give Plasmodium berghei INHIBITION for c1cc(-c2noc(CN3CCc4c(ncn4C4CC4)C3)n2)cs1
31.1
